- system: T1, 006 PSMA Fab (biotinylated (site not stated))
- T1 construct: also called Anti-PSMA Fab
- measurement description: clonal phage ELISA on captured PSMA Fab, wells pre-incubated with PSMA antigen as competitor
Where no end group is shown, it is not given here.
recorded metric: Phage binding ELISA signal, Anti-PSMA Fab in presence of PSMA
Would you mind answering with just the numeric figure?

These recorded examples may help you get a feel for the data.
ISALCVPDWMCYGF (Peptide-180 library clone, tested as clonal phage (peptide fused to pIII)) [Phage-2939] ... 0.696
VFPMCKPAWMCLGF (Peptide-180 library clone, tested as clonal phage (peptide fused to pIII)) [Phage-2937] ... 0.319
TVIKCIPAWMCDGF (Peptide-180 library clone, tested as clonal phage (peptide fused to pIII)) [Phage-2945] ... 0.09
IHPVCKPDWMCAGF (cysteine pairing not given here; also: peptide fused to pIII, Peptide-180 library clone, tested as clonal phage (peptide fused to pIII)) [Phage-2935] ... 0.0823
ELILCQPRWMCEGF (Peptide-180 library clone, tested as clonal phage (peptide fused to pIII)) [Phage-2942] ... 0.0637
HVPKCVPQWMCIGF (Peptide-180 library clone, tested as clonal phage (peptide fused to pIII)) [Phage-2938] ... 0.202

The record that follows has no Phage binding ELISA signal, Anti-PSMA Fab in presence of PSMA shown yet.
Prompt line: Look up Phage binding ELISA signal, Anti-PSMA Fab in presence of PSMA: LTPMCKPSWMCDGF (Peptide-180 library clone, tested as clonal phage (peptide fused to pIII)) [Phage-2944]
Response line: 0.105
